system: HOP-92; experiment: cells; format: functional, cell-based, Homo sapiens; conditions: Homo sapiens, HOP-92;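 note: cell viability readout, with IC50 reflecting inhibition of HOP-92 cell growth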
Description: SANGER: Inhibition of human HOP-92 cell growth in a cell viability assay.
Counter-ions that a name gives are not always drawn.
outcome measure: IC50 (µM)
Answers are plain numbers, in µM.

// COC1=CC(c2cc3ccccc3[nH]2)=N/C1=C\c1[nH]c(C)cc1C [OBATOCLAX MESYLATE] : IC50 value = 0.368

###

system: KMOE-2; assay: cells; assay type: functional, cell-based, Homo sapiens; details: Homo sapiens, KMOE-2;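 note: growth inhibition of human KMOE-2 cells, read out with a cell viability assay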
Description: SANGER: Inhibition of human KMOE-2 cell growth in a cell viability assay.
outcome measure: IC50

1. O=C(O)c1ccc(-c2c[nH]c3ncc(-c4ccccc4)cc23)cc1C1CCCC1 [GSK-650394] | > 16 µM
2. CCC/C=C/C=C/C(=O)O[C@H]1/C(=C/C(=O)OC)C[C@H]2C[C@H]([C@@H](C)O)OC(=O)C[C@H](O)C[C@@H]3C[C@H](OC(C)=O)C(C)(C)[C@](O)(C[C@@H]4C/C(=C/C(=O)OC)C[C@H](/C=C/C(C)(C)[C@]1(O)O2)O4)O3 [BRYOSTATIN 1] | > 0.008 µM

Let us move to another entry and its IC50.
get_value(item= CS(=O)(=O)c1ccc(C(=O)Nc2ccc(Cl)c(-c3ccccn3)c2)c(Cl)c1 [VISMODEGIB] , readout=IC50) returns > 10 µM

###

tested on: GT3TKB; experiment: cells; type: functional, cell-based, Homo sapiens; details: Homo sapiens, GT3TKB
Description: SANGER: Inhibition of human GT3TKB cell growth in a cell viability assay.
pIC50: −log10 of the molar value.
Provide the reported pIC50 of each item.

A selection of reference data follows.
1. C=C(c1ccc(C(=O)O)cc1)c1cc2c(cc1C)C(C)(C)CCC2(C)C | < 5.10
2. CN(C)C(=N)NC(=N)N | < 1.70
3. N#Cc1c(O)c2c(-c3ccc(-c4ccccc4O)cc3)csc2[nH]c1=O | < 5.99
4. CCN(CC)CCNC(=O)c1c(C)[nH]c(/C=C2\C(=O)Nc3ccc(F)cc32)c1C | 5.18

Please find the next compound below.
# "CC1(C)CNc2cc(NC(=O)c3cccnc3NCc3ccncc3)ccc21" with GT3TKB: pIC50 is < 5.70

###

I'd be grateful if you could share measured pIC50 for these entries.
system: HPAF-II; assay: cells; assay type: functional, cell-based, Homo sapiens; settings: Homo sapiens, HPAF-II
Description: SANGER: Inhibition of human HPAF-II cell growth in a cell viability assay.
pIC50: −log10 of the molar value.

1) N#Cc1c(O)c2c(-c3ccc(-c4ccccc4O)cc3)csc2[nH]c1=O | < 5.99
2) COc1cccc2c1C(=O)c1c(O)c3c(c(O)c1C2=O)C[C@@](O)(C(=O)CO)C[C@@H]3O[C@H]1C[C@H](N)[C@H](O)[C@H](C)O1 | 6.28
3) CS(=O)(=O)c1ccc(C(=O)Nc2ccc(Cl)c(-c3ccccn3)c2)c(Cl)c1 | < 5.00
4) CC(C)CCN1c2nc(Nc3cc(F)c(O)c(F)c3)ncc2N(C)C(=O)C1C (stereo not given) | < 5.30

Switching to the query record.
Measured pIC50, "Cc1cn(-c2cc(NC(=O)c3ccc(C)c(Nc4nccc(-c5cccnc5)n4)c3)cc(C(F)(F)F)c2)cn1" : < 5.70

###

system: ES8; assay: cells; assay type: functional, cell-based, Homo sapiens; conditions: Homo sapiens, ES8
Description: SANGER: Inhibition of human ES8 cell growth in a cell viability assay.
I'd be grateful if you could share measured IC50 for these entries.
Give bare numbers, in nM.

Worked set:
1. COc1cc2c(Nc3ccc(NC(=O)c4ccccc4)cc3)ncnc2cc1OCCCN1CCOCC1 | 498
2. CO[C@H]1C[C@@H]2CC[C@@H](C)[C@@](O)(O2)C(=O)C(=O)N2CCCC[C@H]2C(=O)O[C@H]([C@H](C)C[C@@H]2CC[C@@H](OC(=O)C(C)(CO)CO)[C@H](OC)C2)CC(=O)[C@H](C)/C=C(\C)[C@@H](O)[C@@H](OC)C(=O)[C@H](C)C[C@H](C)/C=C/C=C/C=C/1C [TEMSIROLIMUS] | 5.27

For every listed record, write down its IC50.
1. CC(=O)O[C@H]1C(=O)[C@@]2(C)[C@H]([C@H](OC(=O)c3ccccc3)[C@]3(O)C[C@H](OC(=O)[C@H](O)[C@@H](NC(=O)c4ccccc4)c4ccccc4)C(C)=C1C3(C)C)[C@]1(OC(C)=O)CO[C@@H]1C[C@@H]2O [PACLITAXEL]
2. N[C@@H](CSC(c1ccccc1)(c1ccccc1)c1ccccc1)C(=O)O [S-TRITYL-L-CYSTEINE]
3. COc1cc(N2CCN(C)CC2)ccc1Nc1ncc2c(n1)N(C)c1ccccc1C(=O)N2C
4. COc1cccc2c1C(=O)c1c(O)c3c(c(O)c1C2=O)C[C@@](O)(C(=O)CO)C[C@@H]3O[C@H]1C[C@H](N)[C@H](O)[C@H](C)O1 [DOXORUBICIN]

5.38
432
4160
21.1

###

So I've got a bunch of molecules here, and I need their pIC50 values.
test system: NCI-H810; test: cells; format: functional, cell-based, Homo sapiens; conditions: Homo sapiens, NCI-H810
Description: SANGER: Inhibition of human NCI-H810 cell growth in a cell viability assay.
pIC50: −log10 of the molar value.

1. CC(C)c1ccccc1Cc1cc(C(=O)Nc2ccc(S(=O)(=O)c3ccccc3C(C)(C)C)cc2)c(O)c(O)c1O | 6.18

// for each molecule below, give its pIC50
1. Cc1cc([N+](=O)[O-])ccc1NS(=O)(=O)c1cc(Cl)ccc1Cl
2. CN(C)C(=N)NC(=N)N
3. CC1(C)CNc2cc(NC(=O)c3cccnc3NCc3ccncc3)ccc21
4. CC(C)CCN1c2nc(Nc3cc(F)c(O)c(F)c3)ncc2N(C)C(=O)C1C (stereo not drawn)
5. Oc1ccc2ccccc2c1SSc1c(O)ccc2ccccc12
6. Cn1cnc2c(F)c(Nc3ccc(Br)cc3Cl)c(C(=O)NOCCO)cc21

1. 5.90
2. < 1.70
3. < 5.70
4. 5.49
5. < 4.49
6. < 5.40

Reported pIC50 ( "COc1cc2c(Nc3ccc(NC(=O)c4ccccc4)cc3)ncnc2cc1OCCCN1CCOCC1" ) = < 5.40

###

test system: SR; test: cells; type: functional, cell-based, Homo sapiens; settings: sr
Description: SANGER: Inhibition of human SR cell growth in a cell viability assay.
outcome measure: pIC50
One number for each entry, as −log10 of the molar value.

sequence "BLEOMYCIN" , pIC50 observed: 7.53

###

system: DMS-79; assay: cells; type: functional, cell-based, Homo sapiens; conditions: Homo sapiens, DMS-79;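 note: growth inhibition measured with a cell viability assay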
Description: SANGER: Inhibition of human DMS-79 cell growth in a cell viability assay.
pIC50: −log10 of the molar value. Structures can show the parent of a compound that is named as a salt.
Exercise: state measured pIC50 for each of the compounds provided.

The following compounds have reported results that may help.
1. Nc1cccc2c1CN(C1CCC(=O)NC1=O)C2=O (centres undefined) [LENALIDOMIDE] | < 5.30
2. Nc1ccn([C@@H]2O[C@H](CO)[C@@H](O)C2(F)F)c(=O)n1 | < 5.99

I have 5 compounds here; please give me pIC50 for each one.
1. CC[C@H](CO)Nc1nc(NCc2ccccc2)c2ncn(C(C)C)c2n1
2. CS(=O)(=O)c1ccc(C(=O)Nc2ccc(Cl)c(-c3ccccn3)c2)c(Cl)c1
3. CN(C)C(=N)NC(=N)N
4. C#Cc1cccc(Nc2ncnc3cc(OCCOC)c(OCCOC)cc23)c1
5. COC1=CC(c2cc3ccccc3[nH]2)=N/C1=C\c1[nH]c(C)cc1C [OBATOCLAX MESYLATE]

1: < 4.80; 2: < 5.00; 3: 2.22; 4: < 5.70; 5: < 4.80

Items follow; give pIC50 for each.
1. CCC/C=C/C=C/C(=O)O[C@H]1/C(=C/C(=O)OC)C[C@H]2C[C@H]([C@@H](C)O)OC(=O)C[C@H](O)C[C@@H]3C[C@H](OC(C)=O)C(C)(C)[C@](O)(C[C@@H]4C/C(=C/C(=O)OC)C[C@H](/C=C/C(C)(C)[C@]1(O)O2)O4)O3
2. C=C(c1ccc(C(=O)O)cc1)c1cc2c(cc1C)C(C)(C)CCC2(C)C

1. < 8.10
2. < 5.10

###

Please respond with reported pIC50 for every item in the list.
system: HOS; assay: cells; type: functional, cell-based, Homo sapiens; settings: Homo sapiens, HOS
Description: SANGER: Inhibition of human HOS cell growth in a cell viability assay.
pIC50: −log10 of the molar value.

Some compounds with recorded pIC50:
1) CCN(CC)CCCCNc1ncc2cc(-c3cc(OC)cc(OC)c3)c(NC(=O)NC(C)(C)C)nc2n1 | < 5.70
2) Cc1cn(-c2cc(NC(=O)c3ccc(C)c(Nc4nccc(-c5cccnc5)n4)c3)cc(C(F)(F)F)c2)cn1 | < 5.70
3) CN(C)C(=N)NC(=N)N | < 1.70

Return reported pIC50 values for all items listed beneath this line.
1. CO[C@H]1C[C@@H]2CC[C@@H](C)[C@@](O)(O2)C(=O)C(=O)N2CCCC[C@H]2C(=O)O[C@H]([C@H](C)C[C@@H]2CC[C@@H](OC(=O)C(C)(CO)CO)[C@H](OC)C2)CC(=O)[C@H](C)/C=C(\C)[C@@H](O)[C@@H](OC)C(=O)[C@H](C)C[C@H](C)/C=C/C=C/C=C/1C
2. CCC/C=C/C=C/C(=O)O[C@H]1/C(=C/C(=O)OC)C[C@H]2C[C@H]([C@@H](C)O)OC(=O)C[C@H](O)C[C@@H]3C[C@H](OC(C)=O)C(C)(C)[C@](O)(C[C@@H]4C/C(=C/C(=O)OC)C[C@H](/C=C/C(C)(C)[C@]1(O)O2)O4)O3
3. CC(C)CCN1c2nc(Nc3cc(F)c(O)c(F)c3)ncc2N(C)C(=O)C1C (configuration not stated)
4. C=C(c1ccc(C(=O)O)cc1)c1cc2c(cc1C)C(C)(C)CCC2(C)C

[6.84, "< 8.10", 5.35, "< 5.10"]
